Target: triosephosphate isomerase (TPI) (Giardia intestinalis)
Construct: His-tag (TEV-cleavable) (cleaved yes); made in house
Assay: Intrinsic fluorescence of TPI
Conditions: compound at IC50 concentration; TPI without inhibitors 161 a.u. at 330 nm
observable: Maximum intrinsic fluorescence intensity of TPI (a.u.)
Report as a plain number; the unit a.u. is understood.

Ask | Record request: Maximum intrinsic fluorescence intensity of TPI value, item Cc1c(OCC(F)(F)F)ccnc1C[S+]([O-])c1nc2ccc([N+](=O)[O-])cc2[nH]1 (stereo not shown)
Reply | 72.6

Ask | Record request: Maximum intrinsic fluorescence intensity of TPI value, item O=[N+]([O-])c1ccc2nc([S+]([O-])Cc3ccccn3)[nH]c2c1 (stereo not shown)
Reply | 107

Ask | Record request: Maximum intrinsic fluorescence intensity of TPI value, item COc1c(C)cnc(C[S+]([O-])c2nc3ccccc3[nH]2)c1C (stereo not shown)
Reply | 40.1

Ask | Record request: Maximum intrinsic fluorescence intensity of TPI value, item Cc1c(OCC(F)(F)F)ccnc1C[S+]([O-])c1nc2ccccc2[nH]1 (stereo not shown) [Lansoprazole, reference compound]
Reply | 123

* * *

System: HT29 cells
Assay: In vitro cytotoxicity, XTT assay, HT29
Type: cell-based, human
Settings: XTT, 48 h
observable: CC50 (µM)
Report as a plain number; the unit µM is understood.

Ask | Recall the recorded CC50 for Cc1c(OCC(F)(F)F)ccnc1C[S+]([O-])c1nc2ccccc2[nH]1 (stereo not shown) [Lansoprazole, reference compound] with HT29 cells and state it.
Reply | 548

* * *

Give Decrease of maximum intrinsic fluorescence intensity of TPI for every item shown.
Target: triosephosphate isomerase (TPI) (Giardia intestinalis, UniProt P36186)
Construct: His-tag (TEV-cleavable) (cleaved yes); made in house
Sequence (P36186 whole entry): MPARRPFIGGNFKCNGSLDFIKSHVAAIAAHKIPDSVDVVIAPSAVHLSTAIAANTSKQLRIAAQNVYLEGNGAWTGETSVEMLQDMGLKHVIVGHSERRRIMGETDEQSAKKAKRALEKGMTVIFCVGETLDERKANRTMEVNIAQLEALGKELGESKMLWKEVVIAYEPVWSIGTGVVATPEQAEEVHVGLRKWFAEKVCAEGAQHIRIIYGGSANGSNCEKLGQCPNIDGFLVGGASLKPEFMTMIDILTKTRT
Test: Intrinsic fluorescence of TPI
Conditions: compared to the TPI enzyme free of compounds
# output: number + unit

Ask | Record request: Decrease of maximum intrinsic fluorescence intensity of TPI value, item Cc1c(OCC(F)(F)F)ccnc1C[S+]([O-])c1nc2ccccc2[nH]1 (stereo not shown) [Lansoprazole, reference compound]
Reply | 25%

Ask | Record request: Decrease of maximum intrinsic fluorescence intensity of TPI value, item COc1c(C)cnc(C[S+]([O-])c2nc3ccccc3[nH]2)c1C (stereo not shown)
Reply | 75%

Ask | Record request: Decrease of maximum intrinsic fluorescence intensity of TPI value, item O=[N+]([O-])c1ccc2nc([S+]([O-])Cc3ccccn3)[nH]c2c1 (stereo not shown)
Reply | 33%

Ask | Record request: Decrease of maximum intrinsic fluorescence intensity of TPI value, item Cc1c(OCC(F)(F)F)ccnc1C[S+]([O-])c1nc2ccc([N+](=O)[O-])cc2[nH]1 (stereo not shown)
Reply | 55%

* * *

Target: triosephosphate isomerase (TPI) (Giardia intestinalis, UniProt P36186)
Construct: His-tag (TEV-cleavable) (cleaved yes); made in house
Experiment: Second-order inactivation constant (k2) of TPI
Assay type: biochemical, Giardia lamblia
Settings: read-out: Second-order inactivation constant k2
Give kinact/KI for every item shown.
Report as a plain number; the unit M⁻¹ s⁻¹ is understood.

Ask | Record request: kinact/KI value, item O=[N+]([O-])c1ccc2nc([S+]([O-])Cc3ccccn3)[nH]c2c1 (stereo not shown)
Reply | 3.2

Ask | Record request: kinact/KI value, item COc1c(C)cnc(C[S+]([O-])c2nc3ccccc3[nH]2)c1C (stereo not shown)
Reply | 2.3

Ask | Record request: kinact/KI value, item Cc1c(OCC(F)(F)F)ccnc1C[S+]([O-])c1nc2ccc([N+](=O)[O-])cc2[nH]1 (stereo not shown)
Reply | 2.8

Ask | Record request: kinact/KI value, item Cc1c(OCC(F)(F)F)ccnc1C[S+]([O-])c1nc2ccccc2[nH]1 (stereo not shown) [Lansoprazole, reference compound]
Reply | 1.78
